Where a name gives a salt, the structure may show the parent alone.
The entries below are paired with their reported melting point.

INSERT INTO measurements (molecule, measurement) VALUES
  ('c1ccc2c(c1)CCC2CCCCN1CCN(c2cccc3c2OCCO3)CC1 (stereo not drawn) (as salt: oxalate)', '154 to 155 °C'),
  ('Fc1ccc2c(CCCN3CCN(c4cccc5c4OCCO5)CC3)noc2c1 (as salt: fumarate)', '187 to 189 °C'),
  ('Cc1cccc2occ(CCN3CCN(c4cccc5c4OCCO5)CC3)c12 (as salt: oxalate)', '204 to 206 °C'),
  ('Clc1cccc2c(CCN3CCN(c4cccc5c4OCCO5)CC3)coc12 (as salt: oxalate)', '190 to 192 °C'),
  ('Clc1ccc2occ(CCN3CC=C(c4cccc5c4OCC5)CC3)c2c1 (as salt: oxalate)', '187 to 202 °C');

Field request: melting point | item: Clc1ccc2c(CCN3CCN(c4cccc5c4OCCO5)CC3)n[nH]c2c1 (as salt: oxalate)
111 to 113 °C

###

Target: human 5-HT1A receptors (Homo sapiens, UniProt P08908)
Construct: expressed in transfected cells; host or cells: HeLa cells (HA7)
Sequence (P08908 whole entry): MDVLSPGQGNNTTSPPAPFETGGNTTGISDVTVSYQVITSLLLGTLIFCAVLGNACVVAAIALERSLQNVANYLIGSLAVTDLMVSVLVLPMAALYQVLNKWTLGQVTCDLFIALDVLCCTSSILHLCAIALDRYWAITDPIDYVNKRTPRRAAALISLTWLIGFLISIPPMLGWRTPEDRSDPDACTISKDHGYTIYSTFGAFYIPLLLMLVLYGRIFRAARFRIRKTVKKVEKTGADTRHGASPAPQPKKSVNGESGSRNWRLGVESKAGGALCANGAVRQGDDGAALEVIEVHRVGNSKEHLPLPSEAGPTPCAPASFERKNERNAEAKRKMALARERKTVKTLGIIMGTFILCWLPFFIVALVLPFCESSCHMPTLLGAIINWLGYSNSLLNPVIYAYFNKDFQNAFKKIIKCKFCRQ
Test: Inhibition of 3H-5-CT binding to human 5-HT1A receptors
Details: cloned human 5-HT1A receptors in HeLa cells (HA7) homogenate, 15 minutes at 37° C., pH 7.7
The entries below are paired with their reported IC50.
// return numeric value only (unit: nM, not printed)

API: value(readout= IC50, system= human 5-HT1A receptors (Homo sapiens, UniProt P08908), query= Cc1ccc2c(CCN3CCN(c4cccc5c4OCCO5)CC3)coc2c1 [Compound 3e] )
8.8

API: value(readout= IC50, system= human 5-HT1A receptors (Homo sapiens, UniProt P08908), query= Clc1ccc2occ(CCN3CCN(c4cccc5c4OCCO5)CC3)c2c1 [Compound 3d] )
18

API: value(readout= IC50, system= human 5-HT1A receptors (Homo sapiens, UniProt P08908), query= Clc1ccc2c(CCN3CCN(c4cccc5c4OCCO5)CC3)n[nH]c2c1 [Compound 2b] )
9.3
